This collection of values is drawn from patent US20230158141A1.

Target: T1, IL-10R2-Fc/His (UniProt Q08334 20-220, limits assumed)
T1 sequence (looked up): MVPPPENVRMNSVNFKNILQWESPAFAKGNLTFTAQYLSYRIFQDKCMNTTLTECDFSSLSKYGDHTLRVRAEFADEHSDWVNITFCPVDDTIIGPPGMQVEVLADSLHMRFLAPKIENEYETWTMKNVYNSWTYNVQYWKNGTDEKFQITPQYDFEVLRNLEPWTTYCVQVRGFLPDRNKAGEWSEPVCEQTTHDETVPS
Assay: ELISA, IL-10R2-Fc/His coated
metricName: Binding recovery (>60%)

Measured Binding recovery (>60%), IL-10 Arg24Cys-R4-20 (ligand, human, UniProt P22301 19-178, looked up, R4-20 on Cys 24, mature) SPGQGTQSENSCTHFPGNLPNMLCDLRDAFSRVKTFFQMKDQLDNLLLKESLLEDFKGYLGCQALSEMIQFYLEEVMPQAENQDPDIKAHVNSLGENLKTLRLRLRRCHRFLPCENKSKAVEQVKNAFNKLQEKGIYKAMSEFDIFINYIEAYMTMKIRN : 98.1%
